- test: Pharmacokinetic evaluation of compounds in mice
- Assay type: in vivo
- conditions: mouse, plasma, oral; female C57BL/6 mice; gavage vs intravenous
reported_metric: bioavailability
Quick note: number first, unit second.

compound	bioavailability
COC(C(=O)Nc1nnc(NC2CC=C(c3cccnn3)CC2)s1)c1cc(OC(F)(F)F)ccc1F (single isomer, unassigned)	34.8%

Now look at this one.
// query Report bioavailability for O=C(Cc1cccc(OC(F)(F)F)c1)Nc1ccc(CCCCc2nnc(NC(=O)Cc3ccccn3)s2)nn1 [CB-839, reference compound] please.
// result 27.1%

---

- test: Pharmacokinetic evaluation of compounds in mice
- Assay type: in vivo
- conditions: mouse; female C57BL/6 mice; plasma; route not given
Entries and their AUC(0-inf)
Write it as a number; the unit µM·h goes unstated.

// query Report AUC(0-inf) for COC(C(=O)Nc1nnc(NC2CC=C(c3cccnn3)CC2)s1)c1cc(OC(F)(F)F)ccc1F (single isomer, unassigned) please.
// result 134

// query Report AUC(0-inf) for O=C(Cc1cccc(OC(F)(F)F)c1)Nc1ccc(CCCCc2nnc(NC(=O)Cc3ccccn3)s2)nn1 [CB-839, reference compound] please.
// result 27.7

---

- target_of_assay: GLS1 (Homo sapiens, UniProt O94925)
- Sequence (O94925 73-669 limits assumed, species assumed): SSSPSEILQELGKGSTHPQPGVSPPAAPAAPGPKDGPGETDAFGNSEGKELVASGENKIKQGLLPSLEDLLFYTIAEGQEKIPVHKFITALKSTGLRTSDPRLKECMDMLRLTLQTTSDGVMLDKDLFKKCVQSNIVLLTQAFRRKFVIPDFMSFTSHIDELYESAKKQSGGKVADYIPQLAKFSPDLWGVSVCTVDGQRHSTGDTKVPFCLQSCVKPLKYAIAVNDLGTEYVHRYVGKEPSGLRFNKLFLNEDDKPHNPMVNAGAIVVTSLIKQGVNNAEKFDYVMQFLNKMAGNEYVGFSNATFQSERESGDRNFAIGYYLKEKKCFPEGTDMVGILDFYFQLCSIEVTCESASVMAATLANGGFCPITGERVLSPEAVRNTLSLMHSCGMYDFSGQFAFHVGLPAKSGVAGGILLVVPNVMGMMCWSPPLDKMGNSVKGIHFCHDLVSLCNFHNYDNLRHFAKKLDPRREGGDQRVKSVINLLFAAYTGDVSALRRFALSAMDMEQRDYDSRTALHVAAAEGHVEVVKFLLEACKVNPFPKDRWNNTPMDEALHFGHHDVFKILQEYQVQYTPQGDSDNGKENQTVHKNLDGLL
- test: Activity test of compounds in a GLS1 coupling reaction system
- Assay type: biochemical
- conditions: enzyme GLS1 2 nM, 4.5 mM L-glutamine, 1 hour preincubation at 23° C.
Where a name gives a salt, the structure may show the parent alone.
Entries and their IC50
Write it as a number; the unit µM goes unstated.

Here is how some molecules turned out for IC50.
molecule	result_units	IC50
CO[C@H](C(=O)Nc1nnc(NC2CCC(c3cc(C(=O)O)cnn3)CC2)s1)c1cc(OC(F)(F)F)ccc1F (some centres unmarked) [Compound 6 (hydrochloride salt)]	µM	1.69
CO[C@H](C(=O)Nc1nnc(NC2CCC(c3cc(C)cnn3)CC2)s1)c1cc(OC(F)(F)F)ccc1F (some centres unmarked) [Compound 5 (hydrochloride salt)]	µM	0.469
COC(C(=O)Nc1nnc(NC2CCC(c3cccnn3)CC2)s1)c1cc(OC(F)(F)F)ccc1F (single isomer, unassigned) [Compound 3]	µM	0.17
COC(C(=O)Nc1nnc(NC2CC=C(c3cccnn3)CC2)s1)c1cc(OC(F)(F)F)ccc1F (single isomer, unassigned) [Compound 1]	µM	0.132
COC(C(=O)Nc1nnc(NC2CC=C(c3cccnn3)CC2)s1)c1cc(OC(F)(F)F)ccc1F (single isomer, unassigned) [Compound 2]	µM	0.0965

// query Report IC50 for CO[C@H](C(=O)Nc1nnc(NC2CC=C(c3ccc(N)nn3)CC2)s1)c1cc(OC(F)(F)F)ccc1F (some centres unmarked) [Compound 7 (hydrochloride salt)] please.
// result 0.133

// query Report IC50 for COC(C(=O)Nc1nnc(N[C@H]2CC[C@@H](c3cccnn3)CC2)s1)c1cccc(OC(F)(F)F)c1 (some centres unmarked) [Compound 9 (hydrochloride salt)] please.
// result 0.502

// query Report IC50 for COc1cc(C(OC)C(=O)Nc2nnc(N[C@H]3CC[C@@H](c4cccnn4)CC3)s2)ccc1F (some centres unmarked) [Compound 12 (trifluoroacetate salt)] please.
// result 4.71

---

- target_of_assay: GLS1 (Homo sapiens, UniProt O94925)
- test: Activity test of compounds in a GLS1 coupling reaction system
- Format: biochemical
- conditions: enzyme GLS1 2 nM, 4.5 mM L-glutamine, 1 hour preincubation at 23° C.
Counter-ions that a name gives are not always drawn.
reported_metric: log10 of IC50 (log10 of the value in µM)
Could you please treat all values as log10 of IC50 in µM?

molecule	log10 of IC50
COc1cccc(C(OC)C(=O)Nc2nnc(N[C@H]3CC[C@@H](c4cccnn4)CC3)s2)c1 (stereo partly drawn) [Compound 8 (trifluoroacetate salt)]	-0.24
COC(C(=O)Nc1nnc(NC2CCC(c3cccnn3)CC2)s1)c1cc(OC(F)(F)F)ccc1F (single isomer, unassigned) [Compound 4]	0.69
CO[C@H](C(=O)Nc1nnc(N[C@H]2CC[C@@H](c3cccnn3)CC2)s1)c1ccccc1 [Compound 10 (hydrochloride salt)]	0.20
COC(C(=O)Nc1nnc(N[C@H]2CC[C@@H](c3cccnn3)CC2)s1)c1cccc(OC(F)F)c1 (stereo partly drawn) [Compound 11 (trifluoroacetate salt)]	-0.14
CO[C@H](C(=O)Nc1nnc(NC2CCC(c3cc4cc[nH]c4nn3)CC2)s1)c1cc(OC(F)(F)F)ccc1F (stereo partly drawn)	-0.12

Now look at this one.
// query Report log10 of IC50 for CO[C@H](C(=O)Nc1nnc(NC2CC=C(c3cc4cc[nH]c4nn3)CC2)s1)c1cc(OC(F)(F)F)ccc1F (stereo partly drawn) [Compound 13 (trifluoroacetate salt)] please.
// result -0.74
